HPK1 (Homo sapiens (Human)) IC50, compiled from various sources.
reported-endpoint: IC50

- O=C1NCc2c(-c3cnc4cc(F)ccn34)ccc(Nc3ccc(N4C[C@H]5CC[C@@H](C4)C5O)cn3)c21 (stereo partly shown): < 0.1 µM
- C/C(Nc1cc(C)n(CC(C)C)n1)=C1/C(=O)Nc2cnc(-c3cnccc3C)cc21: < 0.05 µM
- CN(C)Cc1nc(Nc2ccc(-c3cnc4cc(F)ccn34)c3c2C(=O)NC3)ccc1[C@H]1CCCOC1: < 0.1 µM
- CC1(C)CN(c2c(NC(=O)c3ccc(=O)n(-c4c(F)cccc4F)n3)ccc3nn([C@@H]4CCOC4)cc23)C[C@H]1N: < 0.1 µM
- Cn1ccc2c(-c3ccc(Nc4ccc(N5CCC(O)CC5)cn4)c4c3C(C)(C)NC4=O)ccnc21: > 1 µM
- CC/C(Nc1cnn(C)c1)=C1/C(=O)Nc2cnc(-c3cnccc3C)cc21: < 0.05 µM
- Cc1cccc(F)c1-n1nc2c(-c3ccc4c(c3)CCN(C3CCOCC3)C4)n[nH]c2cc1=O: 0.05 to 0.5 µM

====

pIC50: −log10 of the molar value.
HPK1 (Homo sapiens (Human), UniProt Q92918) pIC50, compiled from various sources.
reported-endpoint: pIC50

• CN1CCN2c3ccc(-c4n[nH]c5cc(C#N)c(-c6ccc7nccn7c6)cc45)cc3OCC2C1 (centres unmarked) = ≥ 8.00
• COCCn1cc(N/C(C)=C2\C(=O)Nc3cnc(-c4c(F)cccc4OC)cc32)cn1 = > 7.30
• Cc1nc2c(N3CC[C@@](C)(N)C3)c(NC(=O)c3ccc(=O)n(-c4c(F)cccc4F)n3)ccc2n1C = > 7.00
• C/C(Nc1cnn(CC(F)F)c1)=C1/C(=O)Nc2cnc(-c3cnccc3C)cc21 = > 7.30
• COc1cccc(F)c1-c1cc2c(cn1)NC(=O)/C2=C(/C)Nc1cnn(C(C)(C)C#N)c1 = > 7.30
• CNc1ncc2c(n1)N1CCN=C1C(c1cc(NC(=O)Nc3ccccc3Cl)c(F)cc1C)=C2 = 5.00 to 7.00
• O=C1NCc2c(-c3cnc4cc(F)ccn34)ccc(Nc3ccc(N4CCO[C@H](CN5CC(F)C5)C4)cn3)c21 = > 7.00
• O=C(Nc1ccc(Cl)c(C2=Cc3cnc(NC4CCOCC4)nc3N3CCN=C23)c1)c1cc(C(F)(F)F)ccn1 = > 7.00

====

HPK1 (Homo sapiens (Human)) pIC50, compiled from various sources.
pIC50: −log10 of the molar value.
reported-endpoint: pIC50

- Cc1c(-c2cc3nc(Nc4cnn(C5CCN(C)CC5)c4)ncc3c(N)c2F)cnc2c1NCCO2: 10.35
- O=C1NCc2c(C3CCOCC3)ncc(Nc3ccc(N4CCNCC4)cn3)c21: 5.30 to 6.00
- CC1(CO)CCN(c2ccc(Nc3ccc(-c4cnc5cc(F)ccn45)c4c3C(=O)NC4)nc2)CC1: > 7.00
- C[C@@H]1C[C@H](O)CCN1c1ccc(Nc2ccc(-c3cnc4cnccn34)c3c2C(=O)NC3)nc1: > 7.00
- CC1(C(=O)Nc2ccc(-c3cc(Nc4ccc(N5CCNCC5)cn4)c4c(=O)[nH]ccc4n3)c(F)c2)CCC1: ≥ 7.00
- C/C(Nc1cnn(C)c1)=C1/C(=O)Nc2ccc(-c3cnccc3C)nc21: > 7.30

====

HPK1 (Homo sapiens (Human)) IC50, compiled from various sources.
reported-endpoint: IC50

- O=C1NCc2c(-c3cnc4cc(F)ccn34)ccc(Nc3ccc([C@@H]4CCOC4)c(CN4CCCC4)n3)c21: < 0.1 µM
- CC(C)(O)[C@@H]1CCCN(c2ccc(Nc3ccc(-c4cnc5cc(F)ccn45)c4c3C(=O)NC4)nc2)C1: < 0.1 µM
- CNC1CCN(c2ccc(Nc3cnc(-c4ccnc5c4ccn5C)c4c3C(=O)NC4)nc2)CC1(F)F (stereo not drawn): < 0.1 µM
- Cc1ccn2c(-c3ncc(Nc4ccc(N5CCNCC5)cn4)c4c3CNC4=O)cnc2c1: < 0.1 µM
- Cn1cc(-c2ccc(Nc3ccc(N4CCNCC4)cn3)c3c2CNC3=O)nc1-c1ccccc1: 1 to 5 µM
- COc1csc2[nH]c(=O)c(-c3nc4ccc(N5CCN(C)CC5)cc4[nH]3)c(N)c12: > 0.5 µM
- Cc1cccc(F)c1-n1nc2c(-c3ccc4c(c3)CN(C)C(=O)C4)n[nH]c2cc1=O: 0.05 to 0.5 µM
- Cc1c(-c2cc3nc(Nc4cnn(C5CC5)c4Cl)ncc3c(N)c2F)cnc2c1NCCO2: 0.00049 µM
- Cc1csc(Nc2ncc3c(n2)N2CCN=C2C(c2cc(NC(=O)c4cc(C(F)(F)F)ccn4)ccc2C)=C3)n1: < 0.1 µM
- Cn1ncc2c(N3C[C@@H]4C[C@H]3CN4)c(NC(=O)c3ccc(=O)n(-c4c(F)cccc4F)n3)ccc21: 0.1 to 1 µM
- Cc1cc(-c2cnc3[nH]cc(-c4ccc(C(=O)N(C)CC(C)(C)O)cc4)c3n2)cc2c1CCN(C)C2: 0.065 µM
- CN(Cc1nc(Nc2ccc(-c3cnc4cc(F)ccn34)c3c2C(=O)NC3)ccc1C1CCOC1)CC(F)(F)F (stereo in doubt): < 0.1 µM
- COc1cc2c(cc1Nc1ncc3c(N)c(F)c(-c4cnc5c(c4C)NCCO5)cc3n1)C(C)N(C)CC2 (single isomer, unassigned): 0.000152 µM
- CNCc1cc(C)c(-c2cc3c(-c4ccc5c(c4)NCC4CN(C)CCN54)n[nH]c3cc2C#N)c(F)c1 (stereo not drawn): ≤ 0.01 µM
- COc1cc2c(cc1Nc1ncc3ccc(-c4cccc(C(C)(C)N)c4)cc3n1)CNCC2: 0.156 µM
